Kindly supply the reported self-splicing fitness (ln) values for the records listed here.
assay: self-splicing fitness, log relative to wild type (ln ratio); higher = more splicing; Tetrahymena group I intron in knt gene, E. coli kanamycin selection, DiMSum; sequences stand for … in CUCUCU…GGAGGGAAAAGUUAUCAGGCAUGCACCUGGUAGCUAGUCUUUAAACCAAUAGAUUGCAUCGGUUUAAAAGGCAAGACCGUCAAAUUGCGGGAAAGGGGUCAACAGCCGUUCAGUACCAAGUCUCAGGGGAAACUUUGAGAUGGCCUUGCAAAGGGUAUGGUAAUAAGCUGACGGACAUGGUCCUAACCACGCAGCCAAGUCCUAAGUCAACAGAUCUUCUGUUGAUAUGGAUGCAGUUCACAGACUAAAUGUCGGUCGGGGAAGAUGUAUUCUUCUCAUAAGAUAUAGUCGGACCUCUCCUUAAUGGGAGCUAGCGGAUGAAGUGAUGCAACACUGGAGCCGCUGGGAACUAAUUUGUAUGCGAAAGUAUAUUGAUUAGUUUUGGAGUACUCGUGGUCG; details: 30 °C;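 also: selection with 25 µg/mL kanamycin versus none on LB agar overnight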
One number for each entry.

Record excerpt, results attached:
Sequence content | self-splicing fitness (ln)
AGCCAGCAAUAUUACGAGUU | -1.84
CCACAGCAAUAUUACGGGGC | -3.95
UCGGAGCAAUAUUACGUGUU | -3.26

For every listed record, write down its self-splicing fitness (ln).
1. CAGAAGCAAUAUUACGAAAG
2. GGUUAGCAAUAUUACGAGAG
3. CGCCAGCAAUAUUACGAGAG
4. AGGCAGCAAUAUUACGUAUA
5. CGUGAGCAAUAUUACGCUGU

A:
1. -1.29
2. -2.64
3. -3.58
4. -3.08
5. -3.2

For every listed record, write down its self-splicing fitness (ln).
1. UAUCAGCAAUAUUACGACGA
2. GUGCAGCAAUAUUACGCGUC
3. CUUCAGCAAUAUUACGGGAC
4. UGUAAGCAAUAUUACGUACA
5. AGAGAGCAAUAUUACGCUUG
6. AUGUAGCAAUAUUACGUCCC
7. CCCCAGCAAUAUUACGCUGC
8. CCCAAGCAAUAUUACGACCU

A:
1: -0.537; 2: -3.39; 3: -2.8; 4: -0.772; 5: -2.97; 6: -1.73; 7: -3.41; 8: -3.38

----------
assay: self-splicing fitness, log relative to wild type (ln ratio); higher = more splicing; Tetrahymena group I intron in knt gene, E. coli kanamycin selection, DiMSum; sequences stand for … in CUCUCU…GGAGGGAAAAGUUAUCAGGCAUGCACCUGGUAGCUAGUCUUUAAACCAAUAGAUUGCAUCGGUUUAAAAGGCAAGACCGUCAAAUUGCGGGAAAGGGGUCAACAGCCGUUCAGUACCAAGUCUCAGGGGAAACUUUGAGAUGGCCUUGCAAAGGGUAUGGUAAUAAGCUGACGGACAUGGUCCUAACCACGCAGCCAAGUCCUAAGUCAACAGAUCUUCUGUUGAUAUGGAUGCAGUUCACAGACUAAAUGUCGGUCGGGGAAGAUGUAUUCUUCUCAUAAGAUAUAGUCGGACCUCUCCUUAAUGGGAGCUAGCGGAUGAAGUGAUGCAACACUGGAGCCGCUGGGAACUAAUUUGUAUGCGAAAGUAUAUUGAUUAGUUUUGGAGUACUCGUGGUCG; details: 37 °C
Readout: self-splicing fitness (ln)
Give bare numbers.

Record excerpt, results attached:
Sequence content | self-splicing fitness (ln)
GACGAGCAAUAUUACGGAAU | -0.331
GAGGAGCAAUAUUACGAGCG | -1.55
CAAUAGCAAUAUUACGUCGA | -2.96
AGGCAGCAAUAUUACGGUGA | -0.711
AUUAAGCAAUAUUACGGCAU | -0.458
ACUAAGCAAUAUUACGGGUA | -0.856
CGGGAGCAAUAUUACGGGCU | -2.5
GAAAAGCAAUAUUACGGAGA | -2.19

For every listed record, write down its self-splicing fitness (ln).
1. AAACAGCAAUAUUACGCAGG
2. GUUCAGCAAUAUUACGAGAC
3. AGUUAGCAAUAUUACGCAAU

A:
1. -2.33
2. -0.261
3. -2.52

For every listed record, write down its self-splicing fitness (ln).
1. UGAUAGCAAUAUUACGUACU
2. CCAUAGCAAUAUUACGGCGA
3. UCUAAGCAAUAUUACGUCCC
4. CCGCAGCAAUAUUACGGUAU
5. CGGCAGCAAUAUUACGUCGU

A:
-0.524
-1.92
-0.386
-3.44
-2.64

----------
assay: self-splicing fitness, log relative to wild type (ln ratio); higher = more splicing; Tetrahymena group I intron in knt gene, E. coli kanamycin selection, DiMSum; sequences stand for … in CUCUCU…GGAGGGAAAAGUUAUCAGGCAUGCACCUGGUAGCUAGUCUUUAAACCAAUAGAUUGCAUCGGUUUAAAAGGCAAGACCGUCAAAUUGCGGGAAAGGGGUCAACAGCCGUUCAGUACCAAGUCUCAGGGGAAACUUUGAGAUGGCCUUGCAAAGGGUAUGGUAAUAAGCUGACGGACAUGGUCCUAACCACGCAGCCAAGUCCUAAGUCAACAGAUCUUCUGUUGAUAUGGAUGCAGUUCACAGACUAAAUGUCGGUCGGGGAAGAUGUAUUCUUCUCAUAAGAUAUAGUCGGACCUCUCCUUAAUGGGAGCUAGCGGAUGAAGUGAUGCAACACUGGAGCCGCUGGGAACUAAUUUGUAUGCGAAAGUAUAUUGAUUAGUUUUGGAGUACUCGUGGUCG; details: 30 °C
Kindly supply the reported self-splicing fitness (ln) values for the records listed here.
Give bare numbers.

Sequence content | self-splicing fitness (ln)
UUAAAGCAAUAUUACGGAUU | -2.69
CCUCAGCAAUAUUACGGAGU | -2.26
CGACAGCAAUAUUACGUUGU | -3.46

For every listed record, write down its self-splicing fitness (ln).
1. CAAAAGCAAUAUUACGGUAU
2. UACGAGCAAUAUUACGGUGA
3. UUAUAGCAAUAUUACGCGCG
4. CUGUAGCAAUAUUACGAUGC
5. CGCAAGCAAUAUUACGCGCG
6. ACCCAGCAAUAUUACGUUCA

A:
1. -3.42
2. -3.12
3. 0.0634
4. -2.62
5. -3.11
6. -0.957

----------
Kindly supply the reported self-splicing fitness (ln) values for the records listed here.
experiment: self-splicing fitness, log relative to wild type (ln ratio); higher = more splicing; Tetrahymena group I intron in knt gene, E. coli kanamycin selection, DiMSum; sequences stand for … in CUCUCU…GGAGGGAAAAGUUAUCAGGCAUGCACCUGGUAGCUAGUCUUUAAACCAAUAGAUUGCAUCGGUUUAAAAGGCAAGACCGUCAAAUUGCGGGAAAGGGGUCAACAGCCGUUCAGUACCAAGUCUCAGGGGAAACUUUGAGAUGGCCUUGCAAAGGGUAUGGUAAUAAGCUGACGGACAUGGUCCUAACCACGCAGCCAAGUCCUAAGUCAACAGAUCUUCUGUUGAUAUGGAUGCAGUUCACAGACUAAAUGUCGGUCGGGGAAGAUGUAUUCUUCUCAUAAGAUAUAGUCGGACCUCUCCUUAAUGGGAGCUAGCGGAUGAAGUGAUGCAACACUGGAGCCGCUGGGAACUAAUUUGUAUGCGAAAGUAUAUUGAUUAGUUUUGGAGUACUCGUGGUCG; conditions: 37 °C
Numbers only.

Sequence content | self-splicing fitness (ln)
CCUCAGCAAUAUUACGGGCC | -2.77
GGCAAGCAAUAUUACGUCCA | -0.175
UUCCAGCAAUAUUACGACGU | -2.18
CGAGAGCAAUAUUACGACGG | -0.616
CUAGAGCAAUAUUACGAUAA | -1.3
AUCAAGCAAUAUUACGAUGU | -0.217
AACAAGCAAUAUUACGUACA | -0.329
CGAUAGCAAUAUUACGCCAA | -1.87

For every listed record, write down its self-splicing fitness (ln).
1. UUUUAGCAAUAUUACGGUAA
2. UGUUAGCAAUAUUACGUCAC
3. GCUCAGCAAUAUUACGUCCA

A:
-0.884
-2.64
-0.711

For every listed record, write down its self-splicing fitness (ln).
1. GCCCAGCAAUAUUACGCUUU
2. GCAAAGCAAUAUUACGUAUU
3. GCCAAGCAAUAUUACGUACA
4. UACAAGCAAUAUUACGCACU
5. UAGGAGCAAUAUUACGUAGC

A:
[0.242, -1.29, -1.65, -0.133, -2.74]

----------
test: self-splicing fitness, log relative to wild type (ln ratio); higher = more splicing; Tetrahymena group I intron in knt gene, E. coli kanamycin selection, DiMSum; sequences stand for … in CUCUCU…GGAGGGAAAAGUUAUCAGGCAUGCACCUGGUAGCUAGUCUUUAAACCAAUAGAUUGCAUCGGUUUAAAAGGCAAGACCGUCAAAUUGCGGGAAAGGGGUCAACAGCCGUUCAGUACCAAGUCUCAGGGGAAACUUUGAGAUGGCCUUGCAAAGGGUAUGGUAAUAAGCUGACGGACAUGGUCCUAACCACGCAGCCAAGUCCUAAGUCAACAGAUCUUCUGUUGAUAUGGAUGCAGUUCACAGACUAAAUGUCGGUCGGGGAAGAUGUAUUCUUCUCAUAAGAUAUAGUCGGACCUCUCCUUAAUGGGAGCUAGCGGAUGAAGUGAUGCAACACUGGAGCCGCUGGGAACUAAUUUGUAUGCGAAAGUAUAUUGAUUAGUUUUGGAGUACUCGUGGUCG; settings: 30 °C
Assign Criterion met whenever self-splicing fitness (ln) does not fall below -2; assign Criterion not met whenever it does.

Q: Given the entry CUAUAGCAAUAUUACGAUCU , answer whether its self-splicing fitness (ln) meets or surpasses -2.
A: Criterion not met

Q: Given the entry ACACAGCAAUAUUACGUCUG , answer whether its self-splicing fitness (ln) meets or surpasses -2.
A: Criterion met
